These data points were gathered from patent US20230086703A1.

TARGET: human CTPS1 (Homo sapiens, UniProt P17812)
Construct: FLAG (with GG linker); His8 (with GG linker); purchased Proteros biostructures GmbH
Sequence (P17812 whole entry): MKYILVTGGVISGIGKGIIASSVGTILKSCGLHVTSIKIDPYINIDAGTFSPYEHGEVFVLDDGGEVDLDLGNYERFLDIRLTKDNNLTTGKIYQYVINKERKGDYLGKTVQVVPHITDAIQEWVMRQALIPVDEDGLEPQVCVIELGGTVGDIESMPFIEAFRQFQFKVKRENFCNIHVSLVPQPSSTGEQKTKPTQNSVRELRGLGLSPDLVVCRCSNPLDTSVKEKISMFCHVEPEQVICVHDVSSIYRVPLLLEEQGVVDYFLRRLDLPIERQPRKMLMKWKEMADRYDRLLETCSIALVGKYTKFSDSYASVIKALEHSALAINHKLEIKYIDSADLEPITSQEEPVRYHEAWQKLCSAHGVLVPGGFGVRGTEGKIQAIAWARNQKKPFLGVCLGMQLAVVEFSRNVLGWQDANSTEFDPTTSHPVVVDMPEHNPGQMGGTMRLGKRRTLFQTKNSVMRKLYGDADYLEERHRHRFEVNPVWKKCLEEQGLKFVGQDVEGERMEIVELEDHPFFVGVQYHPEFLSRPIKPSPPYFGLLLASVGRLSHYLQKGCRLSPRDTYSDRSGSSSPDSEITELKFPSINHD
PROTOCOL_DETAILS: Human CTPS1 enzyme inhibition, ADP-Glo Max assay
Assay type: biochemical
ASSAY_CONTEXT: ADP-Glo Max assay; Table 10; read-out: Human CTPS1 Enzyme Inhibition, IC50 grouped by potency range (CTPS1)
Parameter IC50: see the listing below.

{"INPUT_SMILES": "CCOc1cncc(-c2ccc(NC(=O)C(C)(C)c3csc(NS(=O)(=O)C4CC4)n3)c(F)c2)n1", "QUANTITY_NAME": "IC50", "MEASURED_RESULT": "< 100 nM"}
{"INPUT_SMILES": "COc1cncc(-c2ccc(NC(=O)Cc3csc(NS(=O)(=O)C4CC4)n3)cc2)n1", "QUANTITY_NAME": "IC50", "MEASURED_RESULT": "< 100 nM"}
{"INPUT_SMILES": "CCCOc1cncc(-c2ccc(NC(=O)C(C)(C)c3csc(NS(=O)(=O)C4CC4)n3)nc2)c1", "QUANTITY_NAME": "IC50", "MEASURED_RESULT": "100 to 1000 nM"}
{"INPUT_SMILES": "CCCOc1cncc(-c2ccc(NC(=O)C(C)(C)c3csc(NS(=O)(=O)C4CC4)n3)cc2)n1", "QUANTITY_NAME": "IC50", "MEASURED_RESULT": "< 100 nM"}

Record summary for "Cc1cc(-c2cncc(C#N)c2)ccc1NC(=O)C(C)(C)c1csc(NS(=O)(=O)C2CC2)n1" : reported IC50 = < 100 nM

IC50 reading for "COc1ncccc1-c1ccc(NC(=O)C(C)(C)c2csc(NS(=O)(=O)C3CC3)n2)cc1" : 100 to 1000 nM

The compound "CC(C)(C(=O)Nc1ccc(-c2cncc(OC3CCC3)n2)cc1)c1csc(NS(=O)(=O)C2CC2)n1" showed IC50 equal to 100 to 1000 nM

Entry under test: "COc1cncc(-c2ccc(NC(=O)C(C)(C)c3csc(NS(=O)(=O)C4CC4)n3)c(OC)c2)c1" . Its IC50 was < 100 nM

Sample "CC(C)Oc1cncc(-c2ccc(NC(=O)C(C)(C)c3csc(NS(=O)(=O)C4CC4)n3)cc2)c1" ; IC50 observed: < 100 nM

Kindly note the recorded IC50 for "CC(C)(C(=O)Nc1ccc(-c2cnccc2C(F)(F)F)cc1)c1csc(NS(=O)(=O)C2CC2)n1" , which is 1000 to 10000 nM
